Test protocol: Racecadotril and degradation products over time in Acetate and Citrate at pH 3.6, 4.0, 4.5 (untitled table)
Type: physicochemical
Assay conditions: Acetate, pH 3.6, 6 week
Recorded metric: Thiorphan (%)
Return type: number; implicit unit %.

Task: What does the record list as Thiorphan for CC(=O)SCC(Cc1ccccc1)C(=O)NCC(=O)OCc1ccccc1 (racemic) ?
Output: 0.57

---

Test protocol: Racecadotril and degradation products over time in Acetate and Citrate at pH 3.6, 4.0, 4.5 (untitled table)
Format: physicochemical
Assay conditions: Citrate, pH 4.5, Initial
Recorded metric: Thiorphan (%)
Return type: number; implicit unit %.

Task: What does the record list as Thiorphan for CC(=O)SCC(Cc1ccccc1)C(=O)NCC(=O)OCc1ccccc1 (racemic) ?
Output: 0.01
